Assay procedure: Ratio of drug concentration in brain to plasma in C57BL6 mouse at 30 mg/kg, sc
Assay type: ADME, organism-based
Run conditions: read-out: BPR
Measurement label: Kp
Answers are plain numbers.

Param item = CC(C)C[C@@H](N)C(=O)Nc1ccc(-c2cnco2)c(OC(F)F)c1 ; retrieve measured Kp.
1.04

###

Test target: AP2-associated protein kinase 1 (Homo sapiens)
Sequence (Q2M2I8 whole entry, the tested form may be a part): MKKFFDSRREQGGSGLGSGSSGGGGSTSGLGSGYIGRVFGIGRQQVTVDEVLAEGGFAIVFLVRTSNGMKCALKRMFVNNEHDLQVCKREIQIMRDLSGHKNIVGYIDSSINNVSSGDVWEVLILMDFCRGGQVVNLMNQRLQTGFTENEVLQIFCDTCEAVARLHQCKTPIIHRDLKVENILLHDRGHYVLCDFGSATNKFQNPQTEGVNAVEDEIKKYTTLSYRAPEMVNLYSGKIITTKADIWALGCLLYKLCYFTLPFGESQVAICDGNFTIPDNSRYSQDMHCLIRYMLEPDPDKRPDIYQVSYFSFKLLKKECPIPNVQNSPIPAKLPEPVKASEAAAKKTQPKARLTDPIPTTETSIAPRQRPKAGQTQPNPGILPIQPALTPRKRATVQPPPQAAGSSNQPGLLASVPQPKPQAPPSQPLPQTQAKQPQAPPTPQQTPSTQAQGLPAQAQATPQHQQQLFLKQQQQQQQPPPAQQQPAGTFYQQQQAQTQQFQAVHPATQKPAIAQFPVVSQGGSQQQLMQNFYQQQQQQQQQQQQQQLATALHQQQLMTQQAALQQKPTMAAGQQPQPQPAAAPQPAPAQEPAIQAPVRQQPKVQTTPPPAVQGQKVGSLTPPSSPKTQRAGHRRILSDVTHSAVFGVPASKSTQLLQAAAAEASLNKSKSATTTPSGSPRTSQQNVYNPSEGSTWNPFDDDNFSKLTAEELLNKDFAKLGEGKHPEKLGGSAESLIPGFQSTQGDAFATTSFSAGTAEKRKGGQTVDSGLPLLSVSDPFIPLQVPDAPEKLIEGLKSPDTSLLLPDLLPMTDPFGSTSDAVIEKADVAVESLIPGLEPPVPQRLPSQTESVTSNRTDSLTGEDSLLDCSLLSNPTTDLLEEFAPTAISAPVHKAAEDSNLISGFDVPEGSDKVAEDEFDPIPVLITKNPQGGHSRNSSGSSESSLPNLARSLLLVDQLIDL
Assay procedure: Inhibition of recombinant GST-Xa-tagged human AAK1 (30 to 330 residues) using 5-FAM-labelled Alla-KEEQSQITSQVTGQIGWR-NH2 peptide as substrate incubated for 3 hrs in presence of ATP by electrophoretic analysis
Measurement label: pIC50
Numbers only, as −log10 of the molar value.

Completed entries (count: 8):
# Structure, pIC50
rows = [
    ("COc1cc(NC(=O)[C@H](N)CCC(C)C)ccc1-c1cnco1", 7.15),
    ("CC(C)C[C@@H](N)C(=O)Nc1ccc(-c2cnco2)c(F)c1", 7.37),
    ("COc1cc(NC(=O)[C@H](N)CC(C)C)ccc1-c1ccnnc1", 6.96),
    ("CC[C@@H](C)[C@@H](N)C(=O)Nc1ccc(-c2cnco2)c(OC)c1", 7.51),
    ("COc1cc(NC(=O)[C@H](N)CC(C)C)ccc1-c1cnco1", 7.92),
    ("CC(C)C[C@@H](N)C(=O)Nc1ccc(-c2ccncc2)cc1", 7.82),
    ("CC(C)C[C@@H](N)C(=O)Nc1ccc(-c2cnco2)c(C#N)c1", 7.14),
    ("CC(C)C[C@@H](N)C(=O)Nc1ccc(-c2cnco2)cc1", 6.77),
]

Give me pIC50 for each of these molecules, listed below.
1. COc1cc(NC(=O)[C@@H]2NCCC[C@@H]2C(C)C)ccc1-c1cnco1
2. COc1cc(NC(=O)[C@H](N)CC(C)C)ccc1-c1cn[nH]n1
3. COc1cc(NC(=O)[C@H](N)[C@H](C)O)ccc1-c1cnco1

8.00
7.31
6.39

###

Please provide measured Papp A→B at 2 h for the entries that follow.
Assay procedure: Permeability of the compound across apical to basolateral membrane in human Caco-2 cells incubated for 2 hrs by LC-MS/MS analysis
Give bare numbers, in ×10⁻⁶ cm/s.

Completed entries (count: 3):
# Structure, Value unit, Value observed
measured = [
    ("CC(C)C[C@@H](N)C(=O)Nc1ccc(-c2cnco2)c(OC(F)F)c1", "×10⁻⁶ cm/s", 12.9),
    ("COc1cc(NC(=O)[C@H](N)CC(C)C)ccc1-c1cnco1", "×10⁻⁶ cm/s", 13.7),
    ("COc1cc(NC(=O)[C@@H]2NCCC[C@@H]2C(C)C)ccc1-c1cnco1", "×10⁻⁶ cm/s", 16.7),
]

As a next step, examine the molecule that follows.
Param item = COc1cc(NC(=O)[C@H](N)CC(C)C)ccc1-c1cn[nH]c1 ; retrieve measured Papp A→B at 2 h.
4

###

Assay procedure: Metabolic stability in mouse liver microsomes assessed as parent compound remaining at 0.5 uM incubated for 10 mins in presence of NADPH by LC-MS/MS analysis
Format: ADME, Microsome
Run conditions: read-out: Stability
Could you mark each record Satisfied if its remaining at 10 min, 0.5 µM falls strictly under 50%, and Not satisfied if it equals or exceeds it?

# Compound, Class name
data = [
    ("COc1cc(NC(=O)[C@H](N)CCC(C)C)ccc1-c1cnco1", "Not satisfied"),
    ("COc1cc(NC(=O)[C@H](N)CC(C)C)ccc1-c1ccncn1", "Satisfied"),
    ("COc1cc(NC(=O)[C@@H]2NCCC[C@@H]2C(C)C)ccc1-c1cnco1", "Satisfied"),
    ("COc1cc(NC(=O)[C@H](N)CC(C)C)ccc1-c1ccnc(N)c1", "Not satisfied"),
    ("COc1cc(NC(=O)[C@H](N)CC(C)C)ccc1-c1cn[nH]c1", "Satisfied"),
]

Does this compound meet the criterion remaining at 10 min, 0.5 µM < 50%? COc1cc(NC(=O)[C@H](N)Cc2ccccc2)ccc1-c1cnco1
Not satisfied

CC(C)C[C@@H](N)C(=O)Nc1ccc(-c2cnco2)c(OC(F)F)c1 ?
Satisfied

COc1cc(NC(=O)[C@H](N)C2CCCC2)ccc1-c1cnco1 ?
Not satisfied

###

Test target: Alpha-2C adrenergic receptor (Homo sapiens, UniProt P18825)
Sequence (P18825 whole entry): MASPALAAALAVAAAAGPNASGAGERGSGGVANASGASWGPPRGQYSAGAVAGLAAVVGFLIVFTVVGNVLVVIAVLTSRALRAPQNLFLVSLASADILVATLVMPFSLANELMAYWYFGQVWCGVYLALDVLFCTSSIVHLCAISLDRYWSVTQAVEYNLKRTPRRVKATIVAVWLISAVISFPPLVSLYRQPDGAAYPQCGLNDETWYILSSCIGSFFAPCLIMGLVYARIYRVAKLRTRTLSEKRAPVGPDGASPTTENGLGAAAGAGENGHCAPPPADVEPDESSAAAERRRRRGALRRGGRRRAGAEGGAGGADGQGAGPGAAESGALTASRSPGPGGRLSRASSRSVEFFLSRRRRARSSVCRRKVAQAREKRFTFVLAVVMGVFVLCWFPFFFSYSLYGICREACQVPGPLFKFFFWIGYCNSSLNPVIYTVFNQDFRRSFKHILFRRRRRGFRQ
Assay procedure: Inhibition of alpha 2C adrenergic receptor (unknown origin)
pIC50: −log10 of the molar value.
Measurement label: pIC50

Param item = CC(C)C[C@@H](N)C(=O)Nc1ccc(-c2cnco2)c(OC(F)F)c1 ; retrieve measured pIC50.
< 4.52

###

Assay procedure: Metabolic stability in rat liver microsomes assessed as parent compound remaining at 0.5 uM incubated for 10 mins in presence of NADPH by LC-MS/MS analysis
Assay type: ADME, Microsome
Run conditions: read-out: Stability
Measurement label: remaining at 10 min, 0.5 µM (%)
Numbers only, in %.

# Structure, Value unit, Value observed
rows = [
    ("CC(C)C[C@@H](N)C(=O)Nc1ccc(-c2cnco2)cc1", "%", 71),
    ("COc1cc(NC(=O)[C@H](N)CC(C)C)ccc1-c1ccnc(Cl)c1", "%", 89),
    ("CNc1cc(-c2ccc(NC(=O)[C@H](N)CC(C)C)cc2OC)ccn1", "%", 22),
]

As a next step, examine the compound that follows.
Param item = CCCC[C@@H](N)C(=O)Nc1ccc(-c2cnco2)c(OC)c1 ; retrieve measured remaining at 10 min, 0.5 µM.
76

###

Test target: AP2-associated protein kinase 1 (Homo sapiens)
Assay procedure: Inhibition of recombinant GST-Xa-tagged human AAK1 (30 to 330 residues) using 5-FAM-labelled Alla-KEEQSQITSQVTGQIGWR-NH2 peptide as substrate incubated for 3 hrs in presence of ATP by electrophoretic analysis
Please provide measured pIC50 for the entries that follow.
Answers are plain numbers, as −log10 of the molar value.

# Structure, Test target, Value observed
measured = [
    ("CNc1cc(-c2ccc(NC(=O)[C@H](N)CC(C)C)cc2OC)ccn1", "AP2-associated protein kinase 1 (Homo sapiens)", 6.35),
]

Give me pIC50 for each of these compounds, listed below.
1. COc1cc(N(C)C(=O)[C@H](N)CC(C)C)ccc1-c1cnco1
2. COc1cc(NC(=O)[C@H](N)C2CCCC2)ccc1-c1cnco1
3. COc1cc(NC(=O)[C@H](N)CC2CCC2)ccc1-c1cnco1
4. COc1cc(NC(=O)[C@H](N)CC(C)C)ccc1-n1cncn1
5. COc1cc(NC(=O)[C@H](N)CC(C)C)ccc1-c1cnn(C)c1

1: 4.89; 2: 7.89; 3: 7.48; 4: 6.04; 5: 5.41

###

Please provide measured Papp B→A at 2 h for the entries that follow.
Assay procedure: Permeability of the compound across basolateral to apical membrane in human Caco-2 cells incubated for 2 hrs by LC-MS/MS analysis
Type: ADME, cell-based
Run conditions: Caco-2, read-out: permeability
Answers are plain numbers, in ×10⁻⁶ cm/s.

# Structure, Value observed
measured = [
    ("COc1cc(NC(=O)[C@H](N)CC(C)C)ccc1-c1cn[nH]c1", 14.9),
]

Give me Papp B→A at 2 h for each of these compounds, listed below.
1. COc1cc(NC(=O)[C@H](N)CC(C)C)ccc1-c1cnco1
2. C[C@H]1O[C@@H](O[C@H]2[C@@H](O)C[C@H](O[C@H]3[C@@H](O)C[C@H](O[C@H]4CC[C@@]5(C)[C@H](CC[C@@H]6[C@@H]5C[C@@H](O)[C@]5(C)[C@@H](C7=CC(=O)OC7)CC[C@]65O)C4)O[C@@H]3C)O[C@@H]2C)C[C@H](O)[C@@H]1O
3. COc1cc(NC(=O)[C@@H]2NCCC[C@@H]2C(C)C)ccc1-c1cnco1

1: 15.1; 2: 10; 3: 11.9

###

Please provide measured remaining at 10 min, 0.5 µM for the entries that follow.
Assay procedure: Metabolic stability in mouse liver microsomes assessed as parent compound remaining at 0.5 uM incubated for 10 mins in presence of NADPH by LC-MS/MS analysis
Assay type: ADME, Microsome
Run conditions: read-out: Stability
Note: state the figure and append the unit.

# Structure, remaining at 10 min, 0.5 µM
records = [
    ("COc1cc(NC(=O)[C@H](N)CC(C)(C)C)ccc1-c1cnco1", "65%"),
    ("COc1cc(NC(=O)[C@H](N)CC(C)C)ccc1-c1ccnc(Cl)c1", "74%"),
    ("CCc1cc(NC(=O)[C@H](N)CC(C)C)ccc1-c1cnco1", "45%"),
    ("COc1cc(NC(=O)[C@H](N)CC(C)C)ccc1-c1ccncc1", "65%"),
]

Give me remaining at 10 min, 0.5 µM for each of these compounds, listed below.
1. CCCC[C@@H](N)C(=O)Nc1ccc(-c2cnco2)c(OC)c1
2. CCOc1cc(NC(=O)[C@H](N)CC(C)C)ccc1-c1cnco1
3. COc1cc(NC(=O)[C@H](N)CC2CC2)ccc1-c1cnco1
4. CC(C)C[C@@H](N)C(=O)Nc1ccc(-c2ccncc2)cc1

65%
54%
79%
66%

Reference for the values: ChEMBL document CHEMBL4828715
